Measured IC50 of individual entries
Biological target: Beta Secretase enzyme (BACE) (Homo sapiens)
Sequence (P56817 46-501, species assumed): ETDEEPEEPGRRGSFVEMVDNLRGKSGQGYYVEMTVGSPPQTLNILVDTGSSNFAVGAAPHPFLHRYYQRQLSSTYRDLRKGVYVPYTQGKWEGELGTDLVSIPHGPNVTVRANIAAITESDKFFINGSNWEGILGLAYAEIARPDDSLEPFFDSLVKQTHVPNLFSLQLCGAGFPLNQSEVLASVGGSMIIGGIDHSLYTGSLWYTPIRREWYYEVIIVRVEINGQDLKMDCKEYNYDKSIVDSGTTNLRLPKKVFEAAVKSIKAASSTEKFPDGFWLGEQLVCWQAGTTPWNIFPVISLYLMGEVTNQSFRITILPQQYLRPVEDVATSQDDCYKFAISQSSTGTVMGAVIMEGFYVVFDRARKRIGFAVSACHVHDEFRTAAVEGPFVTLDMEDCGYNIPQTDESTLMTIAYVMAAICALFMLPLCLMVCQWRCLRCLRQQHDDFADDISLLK
Assay: In vitro enzymatic BACE FRET (fluorescence resonance energy transfer) assay
Assay type: biochemical
Conditions: average IC50, enzyme assay; read-out: BACE 1 FRET assay
Write down the numeric answer in nM and omit the unit.

See these solved cases before continuing.
COMPOUND | READOUT TYPE | VALUE UNITS | MEAS VALUE
NC1=N[C@]2(CO1)c1cc(-c3cccnc3F)ccc1Oc1nc(F)c(N3CCOCC3)cc12 [Example 904] | IC50 | nM | 269
CC#Cc1cncc(-c2cc(F)c3c(c2)[C@]2(COC(N)=N2)c2cc(OC)ccc2O3)c1 [Example 776] | IC50 | nM | 2380
CC#Cc1cncc(-c2ccc3c(c2)[C@@]2(COC(N)=N2)c2cc(C4CCOCC4)nc(F)c2O3)c1 [Example 753] | IC50 | nM | 0.7
NC1=N[C@@]2(CO1)c1cc(-c3cccnc3F)ccc1Oc1c(F)cc([C@@H]3CCCOC3)cc12 [Example 286] | IC50 | nM | 1.9
NC1=NC2(CS1)c1cc(I)ccc1Oc1ncc(Br)cc12 (stereo not drawn) [Example 522] | IC50 | nM | 4500

Prompt line: Give the reported value of IC50 for this record: NC1=N[C@@]2(CS1)c1cc(-c3cccnc3F)ccc1Oc1c(F)cc(-c3ncccn3)cc12 [Example 1079]
Response line: 0.4

====

System: Aβ40 in conditioned medium of cells stably expressing Amyloid Precursor Protein (APP)
Experiment: In vitro BACE cell-based assay (Aβ40 in conditioned medium, sandwich ELISA)
Conditions: Homo sapiens, HEK293, average IC50; read-out: HEK cell assay
READOUT TYPE: pIC50
Please keep in mind that pIC50 is minus log10 of the molar concentration; only the number is needed.

MOL SMILES | READOUT TYPE | MEAS VALUE
NC1=N[C@@]2(CS1)c1cc(-c3cccnc3F)ccc1Oc1c2cc(C2=CCCOC2)nc1F | pIC50 | 8.52

Prompt line: Tell me its pIC50 given C[Si](C)(C)c1cc2c(nc1F)Oc1ccc(-c3cccnc3F)cc1[C@@]21COC(N)=N1 as the entry.
Response line: 6.77

====

Tested on: Aβ40 in conditioned medium of cells stably expressing Amyloid Precursor Protein (APP)
Assay: In vitro BACE cell-based assay (Aβ40 in conditioned medium, sandwich ELISA)
Conditions: Homo sapiens, HEK293, average IC50; read-out: HEK cell assay
IC50 listing for selected molecules.
Value expressed in nM; do not type the unit.

Below, 4 molecules whose answers are already recorded.
MOL SMILES | VALUE UNITS | IC50
NC1=N[C@@]2(CO1)c1cc(-c3cncc(C4=CCOCC4)c3)ccc1Oc1cnc(C3=CCOCC3)cc12 | nM | 106
Cc1cc(-c2ccc3c(c2)[C@@]2(COC(N)=N2)c2cc(-c4cccnc4)ncc2O3)cnc1F | nM | 36.3
NC1=N[C@@]2(CO1)c1cc(-c3cncc(C#CCO)c3)ccc1Oc1cnc(C3=CCOCC3)cc12 | nM | 2
NC1=N[C@]2(CO1)c1cc(C3=CCCOC3)cc(F)c1Oc1ccc(-c3cccnc3F)c(F)c12 | nM | 36

Prompt line: Recall the reported IC50 of CC(C)(C)/C=C/c1cc2c(cn1)Oc1cc(F)c(-c3cncnc3)cc1[C@@]21COC(N)=N1 on Aβ40 in conditioned medium of cells stably expressing Amyloid Precursor Protein (APP) and write it down.
Response line: 23.9

Prompt line: Using Aβ40 in conditioned medium of cells stably expressing Amyloid Precursor Protein (APP) as the test system, report measured IC50 of CC1(C#Cc2cnc3c(c2)[C@]2(COC(N)=N2)c2c(ccc(-c4ccc(F)nc4)c2F)O3)COC1 .
Response line: 16
